Please find below pIC50 data on Vascular endothelial growth factor receptor 2 (Homo sapiens) compiled from the literature.
pIC50: −log10 of the molar value.

Worked cases, pIC50 given:
According to the records, this compound Cn1cc(-c2cnc3[nH]cc(C(=O)c4cc(NS(=O)(=O)C5CCCCC5)ccc4F)c3c2)cn1 displays pIC50 of ≥ 5.00

Documented pIC50 of CN(C)CCOc1cc2ncnc(Nc3ccc(NC(=O)NC4CC4)c(Cl)c3)c2c2c1OCCO2 : 6.30 to 7.30

// pIC50 value for COc1cc2ncnc(Oc3ccc(NC(=O)Nc4ccc(Cl)c(C(F)(F)F)c4)cc3)c2c2c1OCCO2 : > 7.30

Measured pIC50, COc1cc2nccc(Oc3ccc(NC(=O)c4cnc(C)c(C5=CCOCC5)c4O)cc3F)c2nc1OC : ≥ 7.00

Record COc1cc2ncnc(Nc3ccc(NC(=O)Nc4ccc(C(F)(F)F)cc4F)c(Cl)c3)c2c2c1OCCO2 . Reported pIC50: > 7.30

Kindly note the recorded pIC50 for Cc1cccc(NC(=O)Nc2ccc(C#Cc3ccc4nc(N)cn4n3)cc2)c1 , which is 7.70

More entries:
response.value for CCN1CCN(c2ccc(Nc3ncc(-c4ccccc4)o3)cc2)CC1 (field: pIC50) = > 6.00

###

This section presents IC50 values reported for UniProt P35968 in the literature.

# count of solved cases: 2
Per the reported UniProt P35968 data, OCc1cccc(-c2ccnc3[nH]ccc23)c1 has IC50 of ≤ 10 µM

Note to self: IC50 of OCc1cccc(-c2c[nH]c3ncccc23)c1 with UniProt P35968 was ≤ 10 µM

For each of the compounds below, state IC50.
1. Cn1cc(C(=O)Nc2ccc(Oc3ccnc4cc(OC5CC5)c5c(c34)OCCO5)cc2)c(=O)n(-c2ccc(F)cc2)c1=O
2. CCCS(=O)(=O)Nc1ccc(F)c(C(=O)c2c[nH]c3ncc(-c4cn[nH]c4)cc23)c1F

A)
0.5 to 5 µM
≤ 10 µM

###

Several publications report IC50 on Vascular endothelial growth factor receptor 2 (Homo sapiens, UniProt P35968); those values are gathered here.

// known answers, use as guide
Kindly note the recorded IC50 for C=CC(=O)Nc1cc2c(Nc3ccc(Br)c(Cl)c3F)ncnc2cc1OCCNC(=O)NC(C)(C)C , which is 0.423 µM

The molecule listed as COc1cccc(Cc2c[nH]c3ncc(-c4cccnc4)cc23)c1F shows IC50 equal to ≤ 10 µM

// IC50 lookup, molecule = CC1(O)CN(c2cc(-c3ccc(N4CCC(C)(NC(=O)c5ncccc5Cl)CC4)nc3)c3c(C#N)cnn3c2)C1 , result: 0.024 µM

// each molecule listed below needs its IC50
1. C=CC(=O)Nc1cc2c(Nc3ccc(Br)cc3F)ncnc2cc1OCC1=NCCO1
2. CCCS(=O)(=O)Nc1ccc(F)c(C(O)c2c[nH]c3ncc(-c4ccc(C(=O)NCC)nc4)cc23)c1F (stereo not drawn)
3. COc1cc2ncnc(Oc3ccc(NC(=O)c4c(OC)ccn(-c5ccc(F)cc5)c4=O)cc3F)c2c2c1OCCO2
4. Cc1cc(-c2c(C)[nH]c3ncccc23)ccc1F
5. COc1ccccc1C1Cc2cnc(Nc3ccccc3)nc2N(c2ccccc2)C1=O (stereo not drawn)
6. COc1cc2nccc(Oc3ccc(CP(=O)(O)NC4CC4)c(Cl)c3)c2cc1C(N)=O
7. CCn1cc(C(=O)Nc2ccc(Oc3ccnc4cc(OC)c5c(c34)OCCO5)cc2)c(=O)n(-c2ccc(F)cc2)c1=O
8. Cc1cnc2[nH]cc(C(=O)c3c(F)ccc(NS(=O)(=O)CCC(F)(F)F)c3F)c2c1

A)
["0.478 µM", "≤ 10 µM", "0.05 to 0.5 µM", "≤ 10 µM", "< 10 µM", "0.2 to 1 µM", "> 5 µM", "≤ 10 µM"]

###

Below are IC50 measurements against Vascular endothelial growth factor receptor 2 (Homo sapiens) drawn from the literature.

Some compounds with recorded IC50:
Memo: CCCS(=O)(=O)Nc1ccc(F)c(C(=O)c2c[nH]c3ncc(-c4ccc(NC(C)=O)nc4)cc23)c1F , reported IC50: ≤ 10 µM

For O=C(c1c(F)ccc(NS(=O)(=O)N2CCOCC2)c1F)c1c[nH]c2ncc(Cl)cc12 the compound record lists IC50 as ≤ 10 µM

Query CCCS(=O)(=O)Nc1ccc(F)c(C(=O)c2c[nH]c3ncc(-c4cnn(C)c4)cc23)c1 yields IC50 of ≤ 10 µM

Hi there! I need IC50 for each item below, if you can.
1. COCCOc1cc2nccc(Oc3ccc(NC(=O)Nc4ccc(F)cc4)c(F)c3)c2cc1C#N
2. COc1cccc(-c2cnc(Nc3ccc(CN4CCOCC4)cc3)o2)c1
3. Cn1cc(-c2cc(Oc3ccc(F)c(NC(=O)Nc4ccc(C(F)(F)F)cc4F)c3)ncn2)cn1
4. Cn1cc(-c2nccc(Oc3ccc(NC(=O)Nc4ccc(Cl)c(C(F)(F)F)c4)cc3)c2Cl)cn1

A)
1: 0.0096 µM; 2: < 1 µM; 3: ≤ 10 µM; 4: 0.0555 µM

###

A compilation of IC50 values for Vascular endothelial growth factor receptor 2 (Homo sapiens, UniProt P35968) from the published literature.

The examples below pair each entry with its known result.
O=C(Nc1cccc(C(F)(F)F)c1)Nc1ccc(Oc2cc(NC(=O)C3CC3)ncn2)c(F)c1 tested on Vascular endothelial growth factor receptor 2 (Homo sapiens, UniProt P35968) gave IC50: 15 nM

// assay Vascular endothelial growth factor receptor 2 (Homo sapiens, UniProt P35968), entry CCOc1ncccc1CNc1ncc(Cc2c[nH]c3ncncc23)cn1 , IC50 value = ≤ 10000 nM

Reported Vascular endothelial growth factor receptor 2 (Homo sapiens, UniProt P35968) IC50 for item O=C(Nc1ccc(C2CN=C3c4ccccc4NC(=O)N3C2)cc1)c1cccc(C(F)(F)F)c1 (stereo not drawn) was > 10000 nM

Entry CCN(CC)CCNC(=O)c1c(C)[nH]c2c1CCC/C2=C1/C(=O)Nc2c(C)cc(C)cc21 , tested on Vascular endothelial growth factor receptor 2 (Homo sapiens, UniProt P35968), has a reported IC50 of 11 nM

Tested on Vascular endothelial growth factor receptor 2 (Homo sapiens, UniProt P35968), the item COc1cc2nccc(Oc3ccc(NC(=S)NC4CC=C(F)CC4)c(Cl)c3)c2cc1C(N)=O (stereo not drawn) showed IC50 equal to 200 to 1000 nM

Record for O=C(Nc1cccc(C(=O)c2ccc3ncc(N4CCOCC4)nc3c2)c1)c1cccc(C(F)(F)F)c1 under target or system Vascular endothelial growth factor receptor 2 (Homo sapiens, UniProt P35968): IC50 reported as < 100 nM

Look up IC50 for the entries below, preserving their order.
1. CCCS(=O)(=O)Nc1ccc(F)c(C(=O)c2c[nH]c3ncc(-c4ccc(S(C)(=O)=O)cc4)cc23)c1F
2. CCc1c(Br)c(=O)c(C(=O)Nc2cc(F)c(Oc3ccnc4cc(OC)c(OC)nc34)cc2F)cn1C
3. Cc1cc(C)cc(-c2ccnc3[nH]cc(C=O)c23)c1

A)
1: ≤ 10000 nM; 2: > 300 nM; 3: ≤ 10000 nM

For each of the compounds below, note its IC50.
1. Fc1nc(NCc2ccc(N3CCOCC3)nc2)ccc1Cc1c[nH]c2ncncc12
2. CCOc1ccncc1NC(=O)c1ccnc2[nH]c(-c3ccc(F)cc3)nc12
3. NC(=O)c1cccc(-c2ccnc3[nH]cc(C(=O)c4cccc(Cl)c4Cl)c23)c1
4. CS(=O)(=O)Nc1ccc(F)c(C(=O)c2c[nH]c3ncc(-c4ccccc4)cc23)c1
5. C=CC(=O)Nc1cc2c(Nc3cc(C(=O)NOC)c(Br)cc3F)ncnc2cc1OCCNC(C)=O
6. CCCCS(=O)(=O)Nc1ccc(F)c(Nc2ncnc3ccc(-c4cccnc4F)cc23)c1F

A)
1. ≤ 10000 nM
2. 1500 nM
3. ≤ 10000 nM
4. ≤ 10000 nM
5. 756 nM
6. > 3000 nM

I have 6 compounds here; please give me IC50 for each one.
1. COc1cc2nccc(Oc3ccc(NC(=O)c4cnc(C)c(C5=CCCCC5)c4O)cc3F)c2cc1OC
2. Cc1[nH]c2c(c1C(=O)N(C)CCN(C)C)CCC/C2=C1/C(=O)Nc2ccc(F)cc21
3. COc1cc2nccc(Oc3ccc(NC(=S)Nc4cccc(C(F)(F)F)c4)c(Cl)c3)c2cc1C(N)=O
4. COc1cc(Nc2ncc3c(n2)CCN(C(=O)c2cc(C)nn2C)C3)cc(OC)c1OC
5. COc1cc2nccc(Oc3ccc(NC(=O)c4c5n(cc(C6=CCCC6)c4=O)CCOC5)cc3F)c2nc1OC
6. Cn1ccnc1COc1ccc(F)c(C(=O)c2c[nH]c3ncc(Cl)cc23)c1F

A)
1. ≤ 100 nM
2. 13 nM
3. 50 to 200 nM
4. 5 nM
5. 100 to 300 nM
6. ≤ 10000 nM

Batch request: IC50 for each of the following compounds.
1. Cn1cc(-c2cnc3[nH]cc(Cc4c(Cl)ccc(OCC(F)(F)F)c4Cl)c3c2)cn1
2. CCCS(=O)(=O)Nc1ccc(F)c(C(=O)c2c[nH]c3ncccc23)c1F
3. COCCOc1cc2nccc(Oc3ccc(NC(=O)c4c(C)n(C)c(C)c(/C=C/C5CC5)c4=O)cc3F)c2nc1OC

A)
≤ 10000 nM
≤ 10000 nM
> 300 nM
